// data source = patent US5652271A

# Tested on: ptosis (eye closure) induced by reserpine
# ASSAY_TEXT: prevention of ptosis (eye closure) induced by reserpine in rats
# Type: in vivo, rat (male, Charles River CD strain)
# CONDITION_NOTES: Rattus norvegicus, po, 3 h, dose causing 50% prevention of reserpine-induced ptosis; test compound oral; reserpine 0.75 mg/kg intravenous; scored three hours later; read-out: ED50
OBSERVED_PROPERTY: ED50 (mg/kg)

- CC(CSCC(=O)C1(c2ccc(Cl)c(Cl)c2)CCC1)CN(C)C (centres unmarked): 8.7
- CN(C)CCCSCC(=O)C1(c2ccc(Cl)c(Cl)c2)CCC1.Cl: 4.2
- CN(C)CCCSCC(O)C1(c2ccc(Cl)c(Cl)c2)CCC1 (centres unmarked): 4.8
- CN(C)CCCS(=O)(=O)CC(=O)C1(c2ccc(Cl)c(Cl)c2)CCC1.Cl: 3.4
- CN(C)CCCSCC(=O)C1(c2cccc(Cl)c2)CCC1.Cl: 23.4

----------
# STUDY_SYSTEM: dopamine reuptake sites (Rattus norvegicus)
# Sequence (P23977 whole entry): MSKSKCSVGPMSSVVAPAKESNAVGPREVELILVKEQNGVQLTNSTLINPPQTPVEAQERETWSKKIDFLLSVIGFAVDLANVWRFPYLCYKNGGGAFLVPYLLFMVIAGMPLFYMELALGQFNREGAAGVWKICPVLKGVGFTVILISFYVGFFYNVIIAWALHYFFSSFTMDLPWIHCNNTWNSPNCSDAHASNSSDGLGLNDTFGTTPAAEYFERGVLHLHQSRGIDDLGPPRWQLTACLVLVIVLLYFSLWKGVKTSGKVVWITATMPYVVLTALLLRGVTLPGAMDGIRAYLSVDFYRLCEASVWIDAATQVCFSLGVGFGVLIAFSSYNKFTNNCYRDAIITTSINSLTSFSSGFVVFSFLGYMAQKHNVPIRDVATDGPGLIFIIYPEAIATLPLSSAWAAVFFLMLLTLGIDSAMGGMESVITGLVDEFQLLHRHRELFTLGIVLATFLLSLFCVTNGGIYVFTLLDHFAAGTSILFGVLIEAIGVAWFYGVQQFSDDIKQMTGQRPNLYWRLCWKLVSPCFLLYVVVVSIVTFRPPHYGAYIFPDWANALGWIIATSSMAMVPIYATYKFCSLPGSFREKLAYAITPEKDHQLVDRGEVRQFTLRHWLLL
# ASSAY_TEXT: inhibition of [3H]dopamine uptake in vitro in rat striatal synaptosomes
# CONDITION_NOTES: [3H]dopamine (2.5 nM) uptake, 5 minutes at 37° C.; calculated from IC50; means ± sem of three independent determinations
OBSERVED_PROPERTY: Ki (nM)

• CC(CSCC(=O)C1(c2ccc(Cl)c(Cl)c2)CCC1)CN(C)C (stereo not shown) [Example 10] = 7.2
• CC(CSCC(O)C1(c2ccc(Cl)c(Cl)c2)CCC1)CN(C)C (stereo not shown) [Example 19] = 6.9
• CN(C)CCCS(=O)(=O)CC(=O)C1(c2ccc(Cl)c(Cl)c2)CCC1.Cl [Example 8, hydrochloride] = 13.4
• CN(C)CCCSCC(=O)C1(c2ccc(Cl)c(Cl)c2)CCC1.O=C(O)CC(O)(CC(=O)O)C(=O)O [Example 18, citrate] = 4.2
• CN(C)CCCSCC(=O)C1(c2ccc(Cl)c(Cl)c2)CCCC1.Cl [Example 20, hydrochloride] = 4.4
• CN(C)CCCCSCC(=O)C1(c2ccc(Cl)c(Cl)c2)CCC1.Cl [Example 13, hydrochloride] = 6.5
• CN(C)CCCSCC(=O)C1(c2ccc(Cl)c(Cl)c2)CCC1.Cl [Example 7, hydrochloride] = 5
• CCCN(CCC)CCCSCC(=O)C1(c2ccc(Cl)c(Cl)c2)CCC1 [Example 14] = 13.4
• CN(C)CCCSCC(O)C1(c2ccc(Cl)c(Cl)c2)CCC1 (stereo not shown) [Example 9] = 7.3
• CN(C)CCCSCC(=O)C1(c2ccc(Cl)c(Cl)c2)CCC1.O=C(O)/C=C/C(=O)O [Example 15, fumarate] = 3.7

----------
# Tested on: ptosis (eye closure) induced by reserpine
# ASSAY_TEXT: prevention of ptosis (eye closure) induced by reserpine in rats
# Format: in vivo, rat (male, Charles River CD strain)
# CONDITION_NOTES: Rattus norvegicus, po, 3 h, dose causing 50% prevention of reserpine-induced ptosis; test compound oral; reserpine 0.75 mg/kg intravenous; scored three hours later; read-out: ED50
Using ED50 as the sorting value, the categories are lo: < 6 mg/kg; med: ≥ 6 mg/kg and < 8 mg/kg; hi: ≥ 8 mg/kg

* CC(CSCC(O)C1(c2ccc(Cl)c(Cl)c2)CCC1)CN(C)C (stereo not drawn) [Example 19] | med
* CN(C)CC[S+]([O-])CC(=O)C1(c2ccc(Cl)c(Cl)c2)CCC1.Cl (stereo not drawn) [Example 2] | med
* CN(C)CCCSCC(=O)C1(c2ccc(Cl)c(Cl)c2)CCCC1.Cl [Example 20] | lo
* CN(C)CCSCC(=O)C1(c2ccc(Cl)c(Cl)c2)CCC1.Cl [Example 1] | hi
* CN(CCSCC(=O)C1(c2ccc(Cl)c(Cl)c2)CCC1)Cc1ccccc1.Cl [Example 5] | hi
* CN(C)CCSCC(=O)C1(c2ccc3ccccc3c2)CCC1.Cl [Example 11] | hi
* CCCN(CCC)CCCSCC(=O)C1(c2ccc(Cl)c(Cl)c2)CCC1 [Example 14] | med
* CN(C)CCCSCC(=O)C1(c2ccc(Cl)c(Cl)c2)CCC1.O=C(O)/C=C/C(=O)O [Example 15] | lo
